Attribution: patent US20170129940A1

Give measured Inhibition of binding (%) for each item. Keep answers brief.
Target: hCMV gH + gL + UL128 + UL130 + UL131A (co-expressed in HEK293T cells) (human cytomegalovirus), P12824
Assay: competitor: 9I6-biotin; cell staining
Conditions: remark: other sources report otherwise
Answers are plain numbers, in %.

[[record]]
binder = "7I13 (antibody, V domains shown) VH: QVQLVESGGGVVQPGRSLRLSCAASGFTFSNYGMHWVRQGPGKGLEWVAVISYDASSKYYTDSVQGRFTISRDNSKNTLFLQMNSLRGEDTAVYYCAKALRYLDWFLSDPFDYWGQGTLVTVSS VL: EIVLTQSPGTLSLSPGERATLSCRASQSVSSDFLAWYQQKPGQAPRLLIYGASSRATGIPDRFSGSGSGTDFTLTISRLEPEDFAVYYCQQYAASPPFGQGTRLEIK"
uom = "%"
obsvalue = 0


Take each entry in turn and give its Inhibition of binding (%).
1. 8J16 (antibody, V domains shown) VH: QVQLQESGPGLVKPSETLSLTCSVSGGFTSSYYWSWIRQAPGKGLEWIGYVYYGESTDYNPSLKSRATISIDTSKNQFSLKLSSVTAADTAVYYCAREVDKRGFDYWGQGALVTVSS VL: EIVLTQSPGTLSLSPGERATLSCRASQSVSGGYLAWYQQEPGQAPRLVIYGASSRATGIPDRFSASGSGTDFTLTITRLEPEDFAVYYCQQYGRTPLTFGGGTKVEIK
2. 9I6 (antibody, V domains shown) VH: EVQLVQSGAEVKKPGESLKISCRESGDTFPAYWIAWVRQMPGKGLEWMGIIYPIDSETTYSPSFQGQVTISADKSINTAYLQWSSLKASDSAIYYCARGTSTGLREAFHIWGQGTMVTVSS VL: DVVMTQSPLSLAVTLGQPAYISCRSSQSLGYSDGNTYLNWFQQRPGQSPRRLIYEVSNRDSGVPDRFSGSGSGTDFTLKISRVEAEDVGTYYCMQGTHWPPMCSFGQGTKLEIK

Outgoing:
[70, 100]
